assay: Stability in pH 1.3 0.02 M […] buffer containing 0.1% (v/v) Cremophor ELP assessed as half life […] by HPLC method; type: physicochemical
experimentalEndpoint: half-life at 10000 µM (h)
Write the number in h without appending the unit.

Task: # query: half-life at 10000 µM of entry O=C(CCCc1ccccc1)OC(CCCN1CCC(O)(c2ccc(Cl)cc2)CC1)c1ccc(F)cc1 (racemic)
Result: 140

----------
test: Stability in pH 7.4 0.02 M phosphate buffer containing 0.1% (v/v) Cremophor ELP assessed as half life at […] by HPLC method; assay type: physicochemical
experimentalEndpoint: half-life at 10000 µM

Task: Which half-life at 10000 µM value is on record for O=C(CCCc1ccccc1)OC(CCCN1CCC(O)(c2ccc(Cl)cc2)CC1)c1ccc(F)cc1 (racemic) ?
Result: 127 h

----------
A short record of pKi observed with UniProt P19020 follows.
Sequence (P19020 whole entry): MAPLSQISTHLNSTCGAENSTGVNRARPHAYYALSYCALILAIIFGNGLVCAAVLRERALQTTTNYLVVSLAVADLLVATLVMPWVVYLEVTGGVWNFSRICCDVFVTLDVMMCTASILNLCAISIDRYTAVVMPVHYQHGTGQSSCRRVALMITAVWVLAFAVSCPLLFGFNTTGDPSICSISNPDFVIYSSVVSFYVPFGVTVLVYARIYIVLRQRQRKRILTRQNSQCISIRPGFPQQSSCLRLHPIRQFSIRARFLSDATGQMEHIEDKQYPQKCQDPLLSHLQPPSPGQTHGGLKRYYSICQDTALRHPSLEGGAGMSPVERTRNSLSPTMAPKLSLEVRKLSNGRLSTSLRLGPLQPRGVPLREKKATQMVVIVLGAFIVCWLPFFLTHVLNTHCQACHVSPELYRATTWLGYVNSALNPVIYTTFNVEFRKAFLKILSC
// returns pKi (minus log10 of molar concentration), number only

Task: What measured pKi is associated with O[C@@H](CCCN1CCC(O)(c2ccc(Cl)cc2)CC1)c1ccc(F)cc1 on UniProt P19020?
Result: 6.45

Task: Follow-up entry: O[C@H](CCCN1CCC(O)(c2ccc(Cl)cc2)CC1)c1ccc(F)cc1
Result: 5.89

----------
tested on: C6; assay: Induction of cell cycle arrest in rat C6 cells assessed as increase in accumulation at S phase after 72 hrs by propidium iodide staining based flow cytometry; format: functional
The source made the active and inactive calls. The calls are words filed in the database; no cut-off is given here.
Write down one outcome, taken from active, inactive

Task: Please share the test call associated with OC(CCCN1CCC(O)(c2ccc(Cl)cc2)CC1)c1ccc(F)cc1 (racemic) [HYDROXYHALOPERIDOL] .
Result: inactive

Task: Further, for O=C(O)CCCc1ccccc1 [PHENYLBUTANOIC ACID] ?
Result: inactive

Task: Further, for O=C(CCCc1ccccc1)OC(CCCN1CCC(O)(c2ccc(Cl)cc2)CC1)c1ccc(F)cc1 (racemic) ?
Result: active

Task: Then this molecule: O=C(CCCc1ccccc1)O[C@@H](CCCN1CCC(O)(c2ccc(Cl)cc2)CC1)c1ccc(F)cc1
Result: active

Task: Similarly, O=C(CCCc1ccccc1)O[C@H](CCCN1CCC(O)(c2ccc(Cl)cc2)CC1)c1ccc(F)cc1 ?
Result: active

----------
tested on: C6; test: Cytotoxicity against rat C6 cells assessed as reduction in cell viability at 0.1 to 5 uM after 24 hrs by MTT assay; format: functional, cell-based; conditions: C6, 24 h
experimentalEndpoint: pIC50
Expect pIC50 as a plain number equal to -log10 of the molar concentration.

Task: Sample O=C(CCCc1ccccc1)OC(CCCN1CCC(O)(c2ccc(Cl)cc2)CC1)c1ccc(F)cc1 (racemic) — what was its pIC50?
Result: 5.30

----------
Record form. Attribute: pKi. Fill in for each entry.
experiment: Displacement of [3H]-DTG from sigma 2 receptor guinea pig brain membranes incubated for 120 mins by scintillation counting method; design: species or system Cavia porcellus, Membrane
Entry type: numeric. Quantity: pKi, the -log10 of concentration in molar units.

Task: Would you kindly share the measured pKi for OC(CCCN1CCC(O)(c2ccc(Cl)cc2)CC1)c1ccc(F)cc1 (racemic) [HYDROXYHALOPERIDOL] ?
Result: 8.70

Task: Can you handle O=C(CCCc1ccccc1)O[C@H](CCCN1CCC(O)(c2ccc(Cl)cc2)CC1)c1ccc(F)cc1 next?
Result: 7.28

Task: Follow-up item: O[C@H](CCCN1CCC(O)(c2ccc(Cl)cc2)CC1)c1ccc(F)cc1
Result: 7.49

Task: Do the same for O=C(CCCN1CCC(O)(c2ccc(Cl)cc2)CC1)c1ccc(F)cc1 please
Result: 7.74

Task: # iterate: O[C@@H](CCCN1CCC(O)(c2ccc(Cl)cc2)CC1)c1ccc(F)cc1
Result: 8.01

Task: How about O=C(CCCc1ccccc1)O[C@@H](CCCN1CCC(O)(c2ccc(Cl)cc2)CC1)c1ccc(F)cc1 ?
Result: 6.93

Task: Same question for Cc1ccccc1NC(=N)Nc1ccccc1C please.
Result: 7.66
